Origin of the recorded values: a collection of fitness landscapes (doi:10.1016/j.celrep.2020.107928)

# one-hybrid fitness for binding NBS DNA per entry
B1: Caulobacter ParB omega fusion; a variant is named by its letters at X, in order, B8GW30 (parent)
chain: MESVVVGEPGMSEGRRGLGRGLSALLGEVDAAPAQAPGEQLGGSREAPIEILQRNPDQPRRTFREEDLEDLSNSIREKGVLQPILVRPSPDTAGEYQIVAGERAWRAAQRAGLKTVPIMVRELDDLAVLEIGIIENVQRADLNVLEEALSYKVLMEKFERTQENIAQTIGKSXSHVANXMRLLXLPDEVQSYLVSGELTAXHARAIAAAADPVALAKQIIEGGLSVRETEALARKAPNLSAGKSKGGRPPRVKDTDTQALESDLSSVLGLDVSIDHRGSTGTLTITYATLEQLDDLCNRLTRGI

Variants of: B1
Experiment: one-hybrid fitness for binding NBS DNA (the Noc-binding site; scaled: cognate 1, non-cognate 0); higher = stronger binding
Conditions: with NBS DNA site
In all, about 81,000 sequences were measured (“one-hybrid fitness for binding NBS DNA”: median about -0.1, highest 2% from about 0.36 on). For the sample, the highest values were picked, then their nearest neighbours and some sequences at random.
MEASURED_ATTRIBUTE: one-hybrid fitness for binding NBS DNA

INSERT INTO results (mutant_designation, result) VALUES
  ('RSFA', '≤ 0.2'),
  ('RRFA', 0.569),
  ('RRFP', '≤ 0.2'),
  ('QPKC', '≤ 0.2'),
  ('DQVR', '≤ 0.2'),
  ('KVSV', '≤ 0.2'),
  ('QLKH', 0.487),
  ('RRFM', 0.266),
  ('DFND', '≤ 0.2'),
  ('PLRA', '≤ 0.2'),
  ('QTKC', 0.53),
  ('RSFS', 0.252),
  ('RSGH', '≤ 0.2'),
  ('ECNK', '≤ 0.2'),
  ('RRAN', 0.282),
  ('QLKQ', 0.331),
  ('QCKN', 0.445),
  ('QRQT', 0.755),
  ('NTKR', 0.255),
  ('NRST', '≤ 0.2'),
  ('WTLY', '≤ 0.2'),
  ('MIQP', '≤ 0.2'),
  ('DLTE', '≤ 0.2'),
  ('LSFT', '≤ 0.2'),
  ('QHYC', '≤ 0.2'),
  ('RCFA', '≤ 0.2'),
  ('QCKC', 0.452),
  ('QTPC', '≤ 0.2'),
  ('QLVH', '≤ 0.2'),
  ('QLKP', '≤ 0.2'),
  ('RRFR', 0.728),
  ('QAKC', 0.349),
  ('RPFS', '≤ 0.2'),
  ('KTIT', '≤ 0.2'),
  ('RPAA', '≤ 0.2'),
  ('QLKD', '≤ 0.2'),
  ('RRFN', 0.23),
  ('RRAD', '≤ 0.2'),
  ('RRAG', 0.357),
  ('DRQT', '≤ 0.2'),
  ('QTKR', 1.15),
  ('QLVS', '≤ 0.2'),
  ('RRFD', '≤ 0.2'),
  ('QLVN', '≤ 0.2'),
  ('RCFS', 0.411),
  ('QHVC', '≤ 0.2');
